Assay: Mouse pharmacokinetic (PK) study
Assay type: in vivo, CD-1 mice
Conditions: mouse, plasma; CD-1 mice, 5 mg/kg IV

{"ITEM SMILES": "C/C(=C\\C=C\\[C@@H](C)c1ccccn1)[C@H]1OC(=O)C[C@H](O)CC[C@@](C)(O)[C@@H](OC(=O)N2CCN(C)CC2)/C=C/[C@@H]1C", "AUC(0-inf) / ng·h/mL": 3160}

----------
Assay: Mouse pharmacokinetic (PK) study
Assay type: in vivo, CD-1 mice
Conditions: mouse, plasma; CD-1 mice, 5 mg/kg IV (Table 7)
OBSERVABLE: half-life (h)

{"ITEM SMILES": "C/C(=C\\C=C\\[C@@H](C)c1ccccn1)[C@H]1OC(=O)C[C@H](O)CC[C@@](C)(O)[C@@H](OC(=O)N2CCC(N3CCCCC3)CC2)/C=C/[C@@H]1C", "QUANTITATIVE READOUT": 3.01}
